Origin of measurements: paper PMC4486934

molecular target: alpha-thrombin (biotinylated, thrombin-BFPRck) (human, UniProt P00734;P00734 328-363;364-622); assay: BLI; 2 mM Ca2+; TBB: 20 mM HEPES pH 7.4, 150 mM NaCl, 2 mM CaCl2; room temperature (cell binding); BLI in TBB
pKd: −log10 of the molar value.
QUANTITY: pKd

Reported pKd, binder 5-12mini (structured_RNA, 2'-fluoro pyrimidines) RNA: GGGAGCUCAGAAUAAACGCUCAAGUUACUGAGCUCAGCAUGAGGCCCGGAUCCGGC : ____
~8.30
